- Assay overview: blood-stage malaria parasite viability loss – strain 3D7, DAPI fluorescence, 100 nL, primary screen (AID 1184);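 note: parasites grown inside human red blood cells in medium with human serum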
- Stated conditions: P. falciparum 3D7 growth, 3 d, higher = more signal
Hi, to clarify the labels: MET covers z-score from -2 upward, NOT MET covers anything below -2.

> print(dat)
                            molecule.smiles    label
1  CCCC=C(CCC)[C@@H](NS(=O)(=O)c1ccc(C(F)(F)F)cc1)c1ccccc1      MET
2  CO[C@H]1O[C@H](CO)[C@@H](OC(=O)Nc2ccccc2)[C@H](OC(=O)c2cc3ccccc3[nH]2)[C@H]1OC(=O)c1cc2ccccc2[nH]1      MET
3  O=C(c1ccccc1)N1C(=O)[C@]2(Cc3ccccc31)N=C(c1ccc(OCCCO)cc1)O[C@@H]2c1ccccc1      MET
4  O=C(O)[C@@H]1[C@@H]2C(=O)N(c3ccccc3)C(=O)[C@@H]2C[C@@H]1Sc1ccccc1      MET
5  COc1cccc(C)c1NC(=O)O[C@H]1[C@H](OC(=O)Nc2ccc3c(c2)OCO3)[C@@H](OC(=O)Nc2ccc3c(c2)OCO3)[C@@H](OC)O[C@@H]1CO  NOT MET
6  [N-]=[N+]=Nc1ccccc1[C@H]1OC(c2ccc(OCCCO)cc2)=N[C@@]1(Cc1ccccc1)C(=O)NCCN1CCOCC1  NOT MET
7  NCCCCCNC(=O)[C@@H]1C[C@@H]2C(=O)N[C@@H](CCCCN)C(=O)N2[C@@H]1c1ccc(O)cc1      MET
